Hey, just so you know, these numbers are from patent US7803930B2.

System: human apolipoprotein B mRNA
Test: Inhibition of human apolipoprotein B mRNA levels in HepG2 cells, quantitative real-time PCR
Type: cell-based
Conditions: HepG2 cells treated with 150 nM of compound; averages from two experiments; quantitative real-time PCR
In the oligonucleotide strings, read from the 5' end, every base follows the letter of its sugar. An asterisk marks phosphorothioate; unmarked linkages are phosphodiester. Other units and linkages are bracketed, terminal groups are in braces. A string of capitals states the bases alone. e = 2'-O-(2-methoxyethyl) (MOE); [5mC] = 5-methylcytosine; d = 2'-deoxy (DNA)
Given measured % INHIB (inhibition of human apolipoprotein B mRNA levels), output rule met if it is greater than or equal to 20% and rule not met if not.

substance | qualitative.label
281633 (antisense eG*eA*eT*eT*e[5mC]*dT*dG*dA*dT*dT*dT*dG*dG*dT*dA*e[5mC]*eT*eT*eA*eG) [compound 281633] | rule met

Req: Hi, just wondering whether 270986 (antisense e[5mC]*eT*e[5mC]*e[5mC]*eA*d[5mC]*dT*dG*dG*dA*dA*d[5mC]*dT*d[5mC]*dT*e[5mC]*eA*eG*e[5mC]*e[5mC]) [compound 270986] shows % INHIB (inhibition of human apolipoprotein B mRNA levels) of 20% or higher.
Resp: rule not met

Req: Next substance: 281638 (antisense eT*e[5mC]*e[5mC]*e[5mC]*eT*d[5mC]*dA*dT*d[5mC]*dT*dG*dA*dG*dA*dA*eT*e[5mC]*eT*eG*eG) [compound 281638]
Resp: rule met

Req: Next substance up: 270991 (antisense eG*eA*eG*e[5mC]*eA*dG*dT*dT*dT*d[5mC]*d[5mC]*dA*dT*dA*d[5mC]*eA*e[5mC]*eG*eG*eT) [compound 270991]
Resp: rule met

Req: Try the substance 270995 (antisense eT*e[5mC]*e[5mC]*eT*e[5mC]*dT*dT*dA*dG*d[5mC]*dG*dT*d[5mC]*d[5mC]*dA*eG*eT*eG*eT*eG) [compound 270995]
Resp: rule met

---

Tested on: human apolipoprotein B mRNA
Assay: Inhibition of human apolipoprotein B mRNA levels in HepG2 cells, quantitative real-time PCR
Assay type: cell-based
Details: HepG2 cells; 50 nM; 24 hour (Table 41)
e = 2'-O-(2-methoxyethyl) (MOE); d = 2'-deoxy (DNA)
measured.property: % Change in apolipoprotein B mRNA expression (%)
Give bare numbers, in %.

// solved cases for % Change in apolipoprotein B mRNA expression follow
substance | obs.value
331022 (antisense GCCTCAGTCTGCTTCGCAC; sugars from the 5' end e5 d10 e4, all phosphorothioate, methylation of C not given here) [compound 331022] | −49
332781 (antisense CTCAGTCTGCTTCGCA; sugars from the 5' end e3 d10 e3, all phosphorothioate, methylation of C not given here) [compound 332781] | −35
332785 (antisense GCTTCGCACC; linkages s4 o1 s4 (s phosphorothioate, o phosphodiester), sugars by position and methylation of C not given here; 2'-MOE wings flank a DNA gap) [compound 332785] | −2

Req: What does the record list as % Change in apolipoprotein B mRNA expression for 332777 (antisense GCCTCAGTCTGCTTCGCA; sugars from the 5' end e5 d10 e3, all phosphorothioate, methylation of C not given here) [compound 332777] ?
Resp: −53

---

Could you please report measured % inhibition 75 nM for the items listed next?
Test system: human apolipoprotein B mRNA
Test: Inhibition of human apolipoprotein B mRNA levels in HepG2 cells, quantitative real-time PCR
Type: cell-based
Settings: Table 19 dose response; HepG2 cells, 75 nM; normalized to untreated control
In the oligonucleotide strings, read from the 5' end, every base follows the letter of its sugar. An asterisk marks phosphorothioate; unmarked linkages are phosphodiester. Other units and linkages are bracketed, terminal groups are in braces. A string of capitals states the bases alone. e = 2'-O-(2-methoxyethyl) (MOE); [5mC] = 5-methylcytosine; d = 2'-deoxy (DNA)
Give bare numbers, in %.

substance | % inhibition 75 nM, %
301031 (eA*eA*eG*eG*e[5mC]*dT*dG*dG*d[5mC]*dT*d[5mC]*dA*d[5mC]*dT*dG*eT*eA*eT*eG*eG; antisense) [compound 301031] | 82
301034 (eT*eG*e[5mC]*eT*eT*dA*dT*dA*dG*dT*d[5mC]*dT*dA*d[5mC]*dT*eG*e[5mC]*e[5mC]*eT*eA; antisense) [compound 301034] | 87
301028 (eG*eG*e[5mC]*eT*e[5mC]*dA*d[5mC]*dT*dG*dT*dA*dT*dG*dG*dT*eT*eT*eT*eA*eT; antisense) [compound 301028] | 79

Give % inhibition 75 nM for each listed item.
1. 301045 (eA*eG*e[5mC]*eA*eA*dA*dA*dT*dA*dA*d[5mC]*dT*d[5mC]*dA*dG*eA*eT*e[5mC]*e[5mC]*eT; antisense) [compound 301045]
2. 301037 (e[5mC]*eA*eG*e[5mC]*eT*dT*dT*dG*dG*dT*dG*d[5mC]*dA*dG*dG*eT*e[5mC]*e[5mC]*eA*eG; antisense) [compound 301037]

Resp:
[86, 85]

Can you give me % inhibition 75 nM for all of these, one by one?
1. 301036 (eT*eT*eT*eG*eG*dT*dG*d[5mC]*dA*dG*dG*dT*d[5mC]*d[5mC]*dA*eG*eT*eT*e[5mC]*eA; antisense) [compound 301036]
2. 301029 (eG*eG*e[5mC]*eT*eG*dG*d[5mC]*dT*d[5mC]*dA*d[5mC]*dT*dG*dT*dA*eT*eG*eG*eT*eT; antisense) [compound 301029]

Resp:
[83, 67]

Parameters: items (list). Returns: % inhibition 75 nM for each item.
1. 301027 (eG*e[5mC]*eT*e[5mC]*eA*d[5mC]*dT*dG*dT*dA*dT*dG*dG*dT*dT*eT*eT*eA*eT*e[5mC]; antisense) [compound 301027]
2. 281625 (antisense eA*eG*eG*eT*eT*dA*d[5mC]*d[5mC]*dA*dG*d[5mC]*d[5mC]*dA*d[5mC]*dA*eT*eG*e[5mC]*eA*eG) [compound 281625]
3. 271009 (antisense eG*e[5mC]*e[5mC]*eT*e[5mC]*dA*dG*dT*d[5mC]*dT*dG*d[5mC]*dT*dT*d[5mC]*eG*e[5mC]*eG*e[5mC]*e[5mC]) [compound 271009]
4. 301014 (e[5mC]*eA*eG*e[5mC]*e[5mC]*d[5mC]*d[5mC]*dG*d[5mC]*dA*dG*dG*dT*d[5mC]*d[5mC]*e[5mC]*eG*eG*eT*eG; antisense) [compound 301014]
5. 301030 (eA*eG*eG*e[5mC]*eT*dG*dG*d[5mC]*dT*d[5mC]*dA*d[5mC]*dT*dG*dT*eA*eT*eG*eG*eT; antisense) [compound 301030]

Resp:
1: 90; 2: 76; 3: 91; 4: 90; 5: 75

---

I'd be grateful if you could share measured % inhibition 150 nM for these entries.
Test system: human apolipoprotein B mRNA
Assay: Inhibition of human apolipoprotein B mRNA levels in HepG2 cells, quantitative real-time PCR
Format: cell-based
Settings: Table 19 dose response; HepG2 cells, 150 nM; normalized to untreated control
In the oligonucleotide strings, read from the 5' end, every base follows the letter of its sugar. An asterisk marks phosphorothioate; unmarked linkages are phosphodiester. Other units and linkages are bracketed, terminal groups are in braces. A string of capitals states the bases alone. e = 2'-O-(2-methoxyethyl) (MOE); [5mC] = 5-methylcytosine; d = 2'-deoxy (DNA)
Give bare numbers, in %.

substance | quantity.unit | % inhibition 150 nM
301045 (eA*eG*e[5mC]*eA*eA*dA*dA*dT*dA*dA*d[5mC]*dT*d[5mC]*dA*dG*eA*eT*e[5mC]*e[5mC]*eT; antisense) [compound 301045] | % | 94
301036 (eT*eT*eT*eG*eG*dT*dG*d[5mC]*dA*dG*dG*dT*d[5mC]*d[5mC]*dA*eG*eT*eT*e[5mC]*eA; antisense) [compound 301036] | % | 92

Req: Need % inhibition 150 nM, item 301028 (eG*eG*e[5mC]*eT*e[5mC]*dA*d[5mC]*dT*dG*dT*dA*dT*dG*dG*dT*eT*eT*eT*eA*eT; antisense) [compound 301028]
Resp: 85

---

Tested on: human apolipoprotein B mRNA
Assay: Inhibition of apolipoprotein B mRNA by dsRNAs in HepG2 cells
Format: cell-based
Conditions: 150 nM with 3.75 μg/mL LIPOFECTIN
Method: In accordance with the present invention, a series of nucleic acid duplexes comprising the antisense compounds of the present invention and their complements were designed to target apolipoprotein B and are shown in Table 42. […] Cells were treated for 4 hours, after which human apolipoprotein B mRNA expression was measured as described by examples herein. […]
In the oligonucleotide strings, read from the 5' end, every base follows the letter of its sugar. An asterisk marks phosphorothioate; unmarked linkages are phosphodiester. Other units and linkages are bracketed, terminal groups are in braces. A string of capitals states the bases alone. e = 2'-O-(2-methoxyethyl) (MOE); [5mC] = 5-methylcytosine; d = 2'-deoxy (DNA); r = 2'-OH (RNA)
Could you please report measured % Inhibition of apolipoprotein B mRNA for the items listed next?
Answers are plain numbers, in %.

Guide cases for % Inhibition of apolipoprotein B mRNA, answers given:
substance | quantity.unit | obs.value
301031 (eA*eA*eG*eG*e[5mC]*dT*dG*dG*d[5mC]*dT*d[5mC]*dA*d[5mC]*dT*dG*eT*eA*eT*eG*eG; antisense) [compound 301031] | % | 73
301028 (eG*eG*e[5mC]*eT*e[5mC]*dA*d[5mC]*dT*dG*dT*dA*dT*dG*dG*dT*eT*eT*eT*eA*eT; antisense) [compound 301028] | % | 85
301030 (eA*eG*eG*e[5mC]*eT*dG*dG*d[5mC]*dT*d[5mC]*dA*d[5mC]*dT*dG*dT*eA*eT*eG*eG*eT; antisense) [compound 301030] | % | 70
263188 (rCrUrUrCrUrGrGrCrArUrCrCrGrGrUrUrUrArGdTdT; siRNA) [compound 263188] | % | 26
301045 (eA*eG*e[5mC]*eA*eA*dA*dA*dT*dA*dA*d[5mC]*dT*d[5mC]*dA*dG*eA*eT*e[5mC]*e[5mC]*eT; antisense) [compound 301045] | % | 77
18078 (antisense eG*eT*eG*e[5mC]*eG*d[5mC]*dG*d[5mC]*dG*dA*dG*d[5mC]*d[5mC]*d[5mC]*eG*eA*eA*eA*eT*e[5mC]) [compound 18078] | % | 13
301021 (eG*eG*eT*e[5mC]*e[5mC]*dA*dT*d[5mC]*dG*d[5mC]*d[5mC]*dA*dG*d[5mC]*dT*eG*e[5mC]*eG*eG*eT; antisense) [compound 301021] | % | 67
301014 (e[5mC]*eA*eG*e[5mC]*e[5mC]*d[5mC]*d[5mC]*dG*d[5mC]*dA*dG*dG*dT*d[5mC]*d[5mC]*e[5mC]*eG*eG*eT*eG; antisense) [compound 301014] | % | 88

State recorded % Inhibition of apolipoprotein B mRNA for all listed substances.
1. 301027 (eG*e[5mC]*eT*e[5mC]*eA*d[5mC]*dT*dG*dT*dA*dT*dG*dG*dT*dT*eT*eT*eA*eT*e[5mC]; antisense) [compound 301027]
2. 301037 (e[5mC]*eA*eG*e[5mC]*eT*dT*dT*dG*dG*dT*dG*d[5mC]*dA*dG*dG*eT*e[5mC]*e[5mC]*eA*eG; antisense) [compound 301037]
3. 281625 (antisense eA*eG*eG*eT*eT*dA*d[5mC]*d[5mC]*dA*dG*d[5mC]*d[5mC]*dA*d[5mC]*dA*eT*eG*e[5mC]*eA*eG) [compound 281625]
4. 301012 (eG*e[5mC]*e[5mC]*eT*e[5mC]*dA*dG*dT*d[5mC]*dT*dG*d[5mC]*dT*dT*d[5mC]*eG*e[5mC]*eA*e[5mC]*e[5mC]) [compound 301012]
5. 301038 (eG*e[5mC]*e[5mC]*eA*eG*d[5mC]*dT*dT*dT*dG*dG*dT*dG*d[5mC]*dA*eG*eG*eT*e[5mC]*e[5mC]; antisense) [compound 301038]

Resp:
1. 79
2. 80
3. 79
4. 77
5. 84

Req: Please give the measured % Inhibition of apolipoprotein B mRNA for this substance: 301029 (eG*eG*e[5mC]*eT*eG*dG*d[5mC]*dT*d[5mC]*dA*d[5mC]*dT*dG*dT*dA*eT*eG*eG*eT*eT; antisense) [compound 301029]
Resp: 77
